tested on: MDA-MB-468 breast; experiment: NCI-60 one-dose screen, 48 h (100 = growth as untreated, 0 = no growth, -100 = all killed); conditions: 10 µM unless noted
Compounds without any hit were thinned out: in the full panel of roughly 83,000, 20% have a hit.
I'd be grateful if you could share measured growth for these entries.
Provide the reading as a plain figure in %.

Value lookup for growth; key = O=C1C(c2c[nH]c3ccccc23)=C(c2coc3cc(Br)ccc23)C(=O)N1O
91.6

Value lookup for growth; key = COc1ccc(C2=C(Br)C(=O)c3nc(C)ccc3C2=O)cc1
87.1

Value lookup for growth; key = O=C(O)CCC(=O)c1ccc(C2CCCCCC2)cc1
105

Value lookup for growth; key = CC(O)Cc1c[nH]c(=O)[nH]c1=O (stereo unspecified)
121

Value lookup for growth; key = Cc1ccc2c(n1)C(=O)c1[nH]c3ccccc3c1C2=O
-15.8

Value lookup for growth; key = COc1ccc2c(c1)CCCC21C(=O)Nc2c(Cl)cccc21 (stereo unspecified)
109

* * *

tested on: MDA-MB-468 breast; experiment: NCI-60 one-dose screen, 48 h; details: 10 µM unless noted
About 83,000 compounds went through this panel and 20% of them were active in at least one assay; those are over-represented in the sample as a whole. The source made the active and inactive calls. Rule for the calls: active = growth percent below 10; inactive = the rest.
The reply should name one outcome from active, inactive

Called result for CCN(CC)CCS(=O)(=O)CCNc1ccnc2cc(Cl)ccc12
active

Called result for O=C(Nc1c(Cl)cc(Cl)cc1Cl)ON=C1CCCCC1
inactive

Called result for O=C(Nc1ccccc1C(=O)N/N=C(\c1ccccc1)c1ccccn1)c1ccccc1
active

Called result for CCOC(=N)CC(=O)Nc1cccc(C)c1Cl
inactive

Called result for COc1ccc(/C=N/NC(=O)c2[nH]c3ccc(Br)cc3c2-c2ccccc2)s1
active

* * *

Test system: MDA-MB-468 breast
Test: NCI-60 one-dose screen, 48 h (100 = growth as untreated, 0 = no growth, -100 = all killed)
Details: 10 µM unless noted
Method: Growth inhibition of the MDA-MB-468 human Breast tumor cell line is measured as a screen for anti-cancer activity. Cells are grown in 96 well plates and exposed to the test compound for 48 hours. Compounds are tested at a single concentration, which is 10^-5 M for most compounds. The reported endpoint is percent growth (GI% or GIPRCNT), where numbers from 0 - 100% represent growth inhibition, and numbers from -100% - 0 represent cell death. […]
This is part of a sample that, as a whole, favours compounds with a hit. Of some 83,000 tested, about 20% had one in any assay.
I'd be grateful if you could share measured growth for these entries.
Provide the reading as a plain figure in %.

Value lookup for growth; key = CNCCn1c(=O)c2cc(OC)c(OC)cc2c2ccc3cc4c(cc3c21)OCO4
-53.9

Value lookup for growth; key = CCOC(=O)c1c(-c2ccc(Cl)cc2)c(C#N)c(=O)n(-c2ccccc2CC)c1N
98.9

Value lookup for growth; key = O=C1/C(=C/c2ccccc2)CN(C(=O)c2cccnc2)C/C1=C\c1ccccc1
-49.2

Value lookup for growth; key = Cc1cn(-c2cc(C(=O)Nc3cccc(-n4ccc5c(NC(=O)c6ccccc6)nccc54)c3)cc(C(F)(F)F)c2)cn1
-9.97

Value lookup for growth; key = N#CC(C#N)=Cc1c(-c2ccccc2)[nH]c2ccccc12
32

Value lookup for growth; key = Nc1c(Br)cc2c(c1Br)Cc1cc([N+](=O)[O-])ccc1-2
-54.8

Value lookup for growth; key = CCCCC/C(C)=N\NC(N)=S
-6.78

Value lookup for growth; key = COc1ccc(S(=O)(=O)Nc2cc(Sc3cccc4cccnc34)c(O)c3ccccc23)cc1
-39.6

Value lookup for growth; key = NS(=O)(=O)c1ccc(-n2cc(-c3cccc(NC(=O)c4ccc(N5CCOCC5)c(C(F)(F)F)c4)c3)nn2)cc1
36.7

Value lookup for growth; key = O=C1/C(=C/C=C/c2ccco2)SC(=S)N1c1ccccc1
-9.4

Value lookup for growth; key = COc1ccc(-c2ccc3c4c(cccc24)C(=O)N(N2C(=O)c4cccc5cccc(c45)C2=O)C3=O)cc1
96.5

Value lookup for growth; key = C[C@]12C[C@H](O)[C@H]3[C@@H](CCC4=CC(=O)CC[C@@]43C)[C@@H]1CC[C@@H]2C(=O)CO
84.4

Value lookup for growth; key = COc1ccc2[nH]cc(C(c3cc(F)cc(F)c3)c3c[nH]c4ccc(OC)cc34)c2c1
89.6

Value lookup for growth; key = CCCCCCNC(=O)Oc1ccc(/C(=C(/C)Cc2ccc(OC)cc2)c2ccc(OCCCN(C)C)cc2)cc1
-17.3

Value lookup for growth; key = COc1ccc(C2C(C#N)=C(N)Oc3c2sc2c(C)cccc32)cc1 (centres undefined)
8.47

Value lookup for growth; key = COC(=O)c1ccc(NC(=O)CSc2nc3ccccc3c(=O)n2-c2ccccc2)cc1
104

Value lookup for growth; key = O=C1Nc2ccccc2/C1=C/c1cn(CC(O)Cn2cc(/C=C3\C(=O)Nc4ccccc43)c3ccccc32)c2ccccc12 (centres undefined)
-84.8

Value lookup for growth; key = c1cc(C2=N[C@@H]3c4ccccc4C[C@@H]3O2)nc(C2=N[C@@H]3c4ccccc4C[C@@H]3O2)c1
95.8

Value lookup for growth; key = Cc1c(Br)cccc1NC(=O)c1sc2nc3c(cc2c1N)CN(Cc1ccccc1)CC3
16.8

* * *

system: MDA-MB-468 breast; test: NCI-60 one-dose screen, 48 h; settings: 10 µM unless noted
The panel holds about 83,000 compounds, 20% with a hit somewhere; the sample as a whole holds those more often. Activity calls are given as the source filed them. Rule for the calls: active = growth percent below 10; inactive = the rest.
The reply should name one outcome from label 1 = active, label 0 = inactive

Called result for CCOC(=O)CNN
label 0

Called result for Cc1ccc(/C=C/C(=O)c2ccc(NC(=O)CSc3nc4c([nH]3)c(=O)n(C)c(=O)n4C)cc2)c(C)c1
label 0

Called result for Cc1ccc2sc3c(c2c1)OC(N)=C(C#N)C3c1ccc(Cl)cc1 (stereo not drawn)
label 1

Called result for C=C(C)COC(=O)c1ccccc1C(=O)OCC1(C)CO1 (stereo not drawn)
label 0

Called result for COc1cc(Nc2ncc(F)c(Nc3ccc4c(n3)N(COP(=O)(O)O)C(=O)C(C)(C)O4)n2)cc(OC)c1OC
label 1

Called result for N#Cc1ccc(NC(=O)c2sc3nc4c(cc3c2N)C(=O)CCC4)cc1
label 0

Called result for COc1ccc(C(=O)CC(c2ccccc2)C(C#N)c2ccccc2)cc1 (stereo not drawn)
label 0

Called result for N#Cc1c(-c2ccc(Cl)cc2)nc(SCc2ccccc2)nc1N1CCNCC1
label 0

Called result for Cc1c2c(cc[n+]1Cc1ccc(F)cc1)c1ccc(OCc3cccc(F)c3)cc1n2Cc1cccc(F)c1
label 1

Called result for O=c1cc(-c2ccccc2)oc2cc(OCc3cn(Cc4ccc(F)cc4)nn3)cc(O)c12
label 0

Called result for Cc1ccc(C(=O)N/N=C/c2ccc3c(c2)OCO3)cc1
label 0

Called result for C=C(C)[C@@H]1CC[C@]2(C(=O)OC)CC[C@]3(C)[C@H](CC[C@@H]4[C@@]5(C)C/C(=C/NC(N)=S)C(=O)C(C)(C)[C@@H]5CC[C@]43C)[C@@H]12
label 0

Called result for O=[N+]([O-])c1ccc(-c2nc(N3CCOCC3)c3c4c(sc3n2)CCCC4)cc1
label 0

Called result for O=C(CC1Sc2ccccc2NC1=O)NNc1ccc(F)cc1 (stereo not drawn)
label 0

Called result for N#C/C(=C\c1ccc(-c2ccc(Br)cc2)o1)c1nc(-c2ccco2)cs1
label 1

Called result for CC1OC(n2c3ccccc3c3c4c(c5c6ccccc6[nH]c5c32)C(=O)N(CCN2CCOCC2)C4=O)CC(O)C1O (stereo not drawn)
label 1

Called result for Nc1nc(-c2cccc([N+](=O)[O-])c2)c(N=Nc2ccccc2)s1
label 0

Called result for COC(=O)[C@]12CC[C@@H](C)[C@H](C)[C@@H]1C1=CC[C@@H]3[C@@]4(C)C(C=O)=C[C@@](C)(COC(=O)c5ccco5)[C@@H]4[C@H](O)C[C@@]3(C)[C@]1(C)CC2
label 1

Called result for O=C(/C=C\c1ccccc1Cl)c1ccccc1
label 0

Called result for COC1CCC(N2C(=O)CNc3ncc(-c4ccc(C(C)(C)O)nc4)nc32)CC1 (stereo not drawn)
label 1

Called result for CCN=C1C=CC(=C(c2ccc(N)cc2)c2ccc(N(CC)CC)c(C)c2)C=C1
label 1

Called result for CC(=O)C1=C(C)NC(NNc2ccccc2)=NC1c1ccc([N+](=O)[O-])cc1 (stereo not drawn)
label 0

Called result for C=C(C)[C@@H]1CC[C@]2(C(=O)O)CC[C@]3(C)[C@H](CC[C@@H]4[C@@]5(C)CCC(N)C(C)(C)[C@@H]5CC[C@]43C)[C@@H]12 (stereo partly drawn)
label 1

* * *

test system: MDA-MB-468 breast; test: NCI-60 one-dose screen, 48 h (100 = growth as untreated, 0 = no growth, -100 = all killed); conditions: 10 µM unless noted
The panel holds about 83,000 compounds, 20% with a hit somewhere; the sample as a whole holds those more often.
readout kind: growth (%)
Provide the reading as a plain figure in %.

Value lookup for growth; key = C=C1C(=O)O[C@@H]2C[C@@H](C)[C@H](OC)CC(=O)[C@](C)(OC(C)=O)C[C@H](OC(=O)/C(C)=C\C)[C@@H]12
54.5

Value lookup for growth; key = CCN1CC(=O)N(/N=C2\C(=O)Nc3ccccc32)C1=S
73.1

Value lookup for growth; key = Nc1ncnc2c1N=C(c1ccc(Cl)cc1)CC(c1cccc(Nc3ccnc4cc(Cl)ccc34)c1)N2 (stereo not given)
75

Value lookup for growth; key = C=C1CC[C@@H]2[C@](C)(COC(C)=O)[C@H](OC(C)=O)CC[C@@]2(C)[C@@H]1CC(Sc1ccccc1)C1=CCOC1=O (stereo not given in full)
-61.1

Value lookup for growth; key = Cc1ccc(C2=NN(c3ccc(S(C)(=O)=O)cc3)C(=O)CC2)cc1
23.9

Value lookup for growth; key = CN1CCN(c2nc(-c3csc(-c4ccncc4)n3)cc3ccccc23)CC1
25.8

Value lookup for growth; key = CCSc1nc(-c2ccc(F)cc2)c(C#N)c(=O)[nH]1
91.4

Value lookup for growth; key = O[C@H]1CO[C@H]2[C@@H]1OC[C@@H]2Oc1ccc(Nc2ccnc(Nc3ccc(O[C@H]4CO[C@H]5[C@@H]4OC[C@@H]5O)c(Cl)c3)n2)cc1Cl
-7.19

Value lookup for growth; key = CCCCCc1ccc(S(=O)(=O)Nc2cccc(-c3csc(NC(=O)CNCCN(C)C)n3)c2)cc1
82.9

Value lookup for growth; key = Cc1cc[n+](CCCCCCCCCC[n+]2ccc(C)cc2)cc1
6.78

Value lookup for growth; key = Cc1c(Cl)cccc1C(=O)Nc1nc2c(s1)CN(C(=O)Nc1cccc(C(F)(F)F)c1)CC2
16.7

Value lookup for growth; key = COc1cc(/C=N/n2c(CN3CCOCC3)nc3ccccc3c2=O)cc(OC)c1OC
109

Value lookup for growth; key = CCOC(=O)C1C(=O)C=C(c2cnccn2)CC1c1ccc(OC)c(OC)c1 (stereo not given)
108

Value lookup for growth; key = COc1ccc(-c2cc(-c3ccc(Cl)cc3)nc(SCCCCCCC(=O)NO)n2)cc1OC
55.2

Value lookup for growth; key = O=S(=O)(Nc1ccc(Cl)c(F)c1)c1ccc(-c2cnc(C3CC3)o2)cc1
-25.4
